Target: Mast/stem cell growth factor receptor Kit (Homo sapiens, UniProt P10721)
Sequence (P10721 whole entry): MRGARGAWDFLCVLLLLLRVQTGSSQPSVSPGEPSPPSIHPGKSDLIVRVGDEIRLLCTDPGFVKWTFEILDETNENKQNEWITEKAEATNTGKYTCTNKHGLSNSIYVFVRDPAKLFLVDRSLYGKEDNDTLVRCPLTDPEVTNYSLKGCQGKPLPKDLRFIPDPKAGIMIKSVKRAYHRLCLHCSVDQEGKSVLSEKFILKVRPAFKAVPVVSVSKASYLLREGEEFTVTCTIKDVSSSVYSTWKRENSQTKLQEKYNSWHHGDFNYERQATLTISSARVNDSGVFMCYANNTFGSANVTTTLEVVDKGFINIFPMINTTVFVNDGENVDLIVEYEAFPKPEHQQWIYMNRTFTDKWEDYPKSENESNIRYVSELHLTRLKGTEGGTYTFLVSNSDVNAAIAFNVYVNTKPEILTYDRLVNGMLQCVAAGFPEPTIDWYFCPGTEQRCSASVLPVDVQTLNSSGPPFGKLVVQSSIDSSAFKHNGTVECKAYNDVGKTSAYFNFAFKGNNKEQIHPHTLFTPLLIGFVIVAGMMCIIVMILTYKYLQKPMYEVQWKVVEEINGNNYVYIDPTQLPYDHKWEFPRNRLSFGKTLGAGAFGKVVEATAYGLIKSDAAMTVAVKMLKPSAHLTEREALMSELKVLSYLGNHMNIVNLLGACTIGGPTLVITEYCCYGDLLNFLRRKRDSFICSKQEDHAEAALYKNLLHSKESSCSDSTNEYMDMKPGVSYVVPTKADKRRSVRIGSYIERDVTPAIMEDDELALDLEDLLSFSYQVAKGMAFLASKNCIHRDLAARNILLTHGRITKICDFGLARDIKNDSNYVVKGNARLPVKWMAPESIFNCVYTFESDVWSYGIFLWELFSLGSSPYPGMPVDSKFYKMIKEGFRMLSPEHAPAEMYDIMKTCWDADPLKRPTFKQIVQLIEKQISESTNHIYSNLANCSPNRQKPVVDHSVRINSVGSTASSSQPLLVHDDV
Collected IC50 values appear next to each entry.
Response body: numeric value in nM, unit text excluded.

Answered cases to consult:
compound-structure-string	system	observed-measurement
COc1cc(O)c2c(c1)CCC[C@H](O)CC(=O)/C=C/C[C@H](C)OC2=O	Mast/stem cell growth factor receptor Kit (Homo sapiens, UniProt P10721)	7600
COc1cc(O)c2c(c1)CCC[C@H](O)[C@H](O)C(=O)/C=C\C[C@H](C)OC2=O	Mast/stem cell growth factor receptor Kit (Homo sapiens, UniProt P10721)	303

Switching to the query record.
QUERY: // fetch IC50 for COc1cc(O)c2c(c1)CCC[C@H](O)CC(=O)/C=C\C[C@H](C)OC2=O ; system: Mast/stem cell growth factor receptor Kit (Homo sapiens, UniProt P10721)
RESULT: 673
